System: RS4;11 cells
Test protocol: RS4;11 Cell Viability Assay (CellTiter Glo)
Type: cell-based
Experimental conditions: Homo sapiens, RS4-11, 48 h, 50,000 cells per well, 10% human serum
Readout: EC50 (nM)
Answers are plain numbers, in nM.

The following compounds have reported results that may help.
[[record]]
compound = "CC1(C)CCC(CN2CCN(c3ccc(C(=O)NS(=O)(=O)c4ccc(NCC5CCC(C)(O)CC5)c([N+](=O)[O-])c4)c(Oc4cnc5[nH]ccc5c4)c3)CC2)=C(c2ccc(Cl)cc2)C1 (stereo not shown) [Example 337]"
readout = "EC50"
quantity_unit = "nM"
reading = 1.76

[[record]]
compound = "CC1(C)CCC(CN2CCN(c3ccc(C(=O)NS(=O)(=O)c4cnc(NC5CCN(C6CCOCC6)CC5)c(Br)c4)c(Oc4cnc5[nH]ccc5c4)c3)CC2)=C(c2ccc(Cl)cc2)C1 [Example 61]"
readout = "EC50"
quantity_unit = "nM"
reading = 183


Field: EC50. Fill in for each record below.
1. CC1(C)CCC(CN2CCN(c3ccc(C(=O)NS(=O)(=O)c4cnc(OCC5CCC6(CC5)CNC(=O)O6)c(Cl)c4)c(Oc4cnc5[nH]ccc5c4)c3)CC2)=C(c2ccc(Cl)cc2)C1 (stereo not shown) [Example 385]
2. Cc1nc2c(s1)CC(COc1ncc(S(=O)(=O)NC(=O)c3ccc(N4CCN(CC5=C(c6ccc(Cl)cc6)CC(C)(C)CC5)CC4)cc3Oc3cnc4[nH]ccc4c3)cc1Cl)CC2 (stereo not shown) [Example 387]
3. CC1(C)CCC(CN2CCN(c3ccc(C(=O)NS(=O)(=O)c4ccc(OCC5CCC(C)(O)CC5)c(Cl)c4)c(Oc4cnc5[nH]ccc5c4)c3)CC2)=C(c2ccc(Cl)cc2)C1 (stereo not shown) [Example 362]

-- reply
133
911
31.7

For each of the items listed, what is its EC50?
1. CC1(O)CCC(COc2ncc(S(=O)(=O)NC(=O)c3ccc(N4CCN(CC5=C(c6ccc(Cl)cc6)CC6(CC5)CC6)CC4)cc3Oc3cnc4[nH]ccc4c3)cc2Cl)CC1 (stereo not shown) [Example 341]
2. CC1(C)CCC(CN2CCN(c3ccc(C(=O)NS(=O)(=O)c4ccc(N[C@@H]5CCN(CCF)C5)c([N+](=O)[O-])c4)c(Oc4cnc5[nH]ccc5c4)c3)CC2)=C(c2ccc(Cl)cc2)C1 [Example 183]
3. CC1(C)CCC(CN2CCN(c3ccc(C(=O)NS(=O)(=O)c4cnc(OC[C@H]5CC[C@@](O)(CO)CC5)c(Cl)c4)c(Oc4cnc5[nH]ccc5c4)c3)CC2)=C(c2ccc(Cl)cc2)C1 [Example 401]
4. COC(=O)[C@H]1CC[C@H](CNc2ccc(S(=O)(=O)NC(=O)c3ccc(N4CCN(CC5=C(c6ccc(Cl)cc6)CC(C)(C)CC5)CC4)cc3Oc3cnc4[nH]ccc4c3)cc2[N+](=O)[O-])CC1 [Example 379]

-- reply
1. 31.7
2. 17.5
3. 26.6
4. 19.4

----------
Please go through the items and note down their Ki.
Target under test: GST-Bc1-2 (Homo sapiens)
Sequence (P10415 whole entry): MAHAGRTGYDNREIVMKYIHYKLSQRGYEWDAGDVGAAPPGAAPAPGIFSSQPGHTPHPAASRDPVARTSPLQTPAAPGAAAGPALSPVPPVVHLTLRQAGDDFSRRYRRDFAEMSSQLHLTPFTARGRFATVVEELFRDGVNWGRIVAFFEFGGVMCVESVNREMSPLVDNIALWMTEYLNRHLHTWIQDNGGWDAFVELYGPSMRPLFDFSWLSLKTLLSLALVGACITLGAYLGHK
Test protocol: Time Resolved-Fluorescence Resonance Energy Transfer (TR-FRET) Bcl-2 binding assay with F-Bak peptide probe
Experimental conditions: TR-FRET Bcl-2 Binding Ki
Numbers only, in nM.

Record excerpt, results attached:
[[record]]
compound = "CN1CCC(Nc2ccc(S(=O)(=O)NC(=O)c3ccc(N4CCN(CC5=C(c6ccc(Cl)cc6)CC(C)(C)CC5)CC4)cc3Oc3ccc4[nH]ccc4c3)cc2[N+](=O)[O-])CC1"
reading = 0.013

[[record]]
compound = "CC1(C)CCC(CN2CCN(c3ccc(C(=O)NS(=O)(=O)c4ccc(OCC5COCCO5)c([N+](=O)[O-])c4)c(Oc4ccc5[nH]ccc5c4)c3)CC2)=C(c2ccc(Cl)cc2)C1 (centres unmarked)"
reading = 0.128

[[record]]
compound = "CN1CCN(Nc2ccc(S(=O)(=O)NC(=O)c3ccc(N4CCN(CC5=C(c6ccc(Cl)cc6)CC(C)(C)CC5)CC4)cc3Oc3ccc4[nH]ccc4c3)cc2[N+](=O)[O-])CC1"
reading = 0.487


Field: next compound
-- ask Answer with the recorded Ki of CC1(C)CCC(CN2CCN(c3ccc(C(=O)NS(=O)(=O)c4ccc(NCC5CCOCC5)c(S(=O)(=O)C(F)(F)F)c4)c(Oc4ccc5[nH]ccc5c4)c3)CC2)=C(c2ccc(Cl)cc2)C1 only.
-- reply 0.678

----------
System: RS4;11 cells
Test protocol: RS4;11 Cell Viability Assay (CellTiter Glo);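 also: RS4,11 acute lymphoblastic leukemia cells, viability as percent of untreated control cells, EC50 for loss of viable cells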
Type: cell-based
Experimental conditions: Homo sapiens, RS4-11, 48 h, 50,000 cells per well, 10% human serum
Give pEC50 for every item shown.
Answers are plain numbers, as −log10 of the molar value.

[[record]]
molecule = "COC[C@H]1CC[C@@H](CNc2ccc(S(=O)(=O)NC(=O)c3ccc(N4CCN(CC5=C(c6ccc(Cl)cc6)CC(C)(C)CC5)CC4)cc3Oc3cnc4[nH]ccc4c3)cc2[N+](=O)[O-])CC1 [Example 382]"
target_under_test = "RS4;11 cells"
readout = "pEC50"
reading = 7.57

[[record]]
molecule = "CC1(C)CCC(CN2CCN(c3ccc(C(=O)NS(=O)(=O)c4cnc5c(c4)c(Cl)cn5CC4CCOCC4)c(Oc4cnc5[nH]ccc5c4)c3)CC2)=C(c2ccc(Cl)cc2)C1 [Example 389]"
target_under_test = "RS4;11 cells"
readout = "pEC50"
reading = 6.13

[[record]]
molecule = "CC1(C)CCC(CN2CCN(c3ccc(C(=O)NS(=O)(=O)c4cnc(OC[C@H]5CC[C@](O)(CO)CC5)c(Cl)c4)c(Oc4cnc5[nH]ccc5c4)c3)CC2)=C(c2ccc(Cl)cc2)C1 [Example 400]"
target_under_test = "RS4;11 cells"
readout = "pEC50"
reading = 7.19

[[record]]
molecule = "CC1(C)CCC(CN2CCN(c3ccc(C(=O)NS(=O)(=O)c4ccc(NC(=O)N5CCC(C#N)CC5)c([N+](=O)[O-])c4)c(Oc4cnc5[nH]ccc5c4)c3)CC2)=C(c2ccc(Cl)cc2)C1 [Example 381]"
target_under_test = "RS4;11 cells"
readout = "pEC50"
reading = 8.85


Provide reported pEC50 for each item, in the same order as listed.
1. COCC1(O)CCC(COc2ncc(S(=O)(=O)NC(=O)c3ccc(N4CCN(CC5=C(c6ccc(Cl)cc6)CC(C)(C)CC5)CC4)cc3Oc3cnc4[nH]ccc4c3)cc2Cl)CC1 (stereo not drawn) [Example 399]
2. CC1(C)CCC(CN2CCN(c3ccc(C(=O)NS(=O)(=O)c4ccc(NC[C@H]5CC[C@H](C(=O)O)CC5)c([N+](=O)[O-])c4)c(Oc4cnc5[nH]ccc5c4)c3)CC2)=C(c2ccc(Cl)cc2)C1 [Example 380]

-- reply
1: 6.89; 2: 6.87

----------
Target under test: GST-Bc1-2 (Homo sapiens)
Test protocol: Time Resolved-Fluorescence Resonance Energy Transfer (TR-FRET) Bcl-2 binding assay with F-Bak peptide probe
Experimental conditions: GST-Bcl-2 1 nM, F-Bak probe 100 nM, Tb-anti-GST 1 nM; '<' = below limit of detection; read-out: TR-FRET Bcl-2 Binding Ki
Readout: Ki (pM)
Numbers only, in pM.

[[record]]
compound = "CC1(C)CCC(CN2CCN(c3ccc(C(=O)NS(=O)(=O)c4ccc(OCC5COCCN5C(=O)OC(C)(C)C)c([N+](=O)[O-])c4)c(Oc4cnc5[nH]ccc5c4)c3)CC2)=C(c2ccc(Cl)cc2)C1 (stereo not drawn)"
readout = "Ki"
reading = 213


Okay, next one:
-- ask Output measured Ki for this item: CC1(C)CCC(CN2CCN(c3ccc(C(=O)NS(=O)(=O)c4cnc(OCC5CCOCC5)c(C(F)(F)F)c4)c(Oc4cnc5[nH]ccc5c4)c3)CC2)=C(c2ccc(Cl)cc2)C1
-- reply 174

----------
Target under test: GST-Bc1-2 (Homo sapiens)
Test protocol: Time Resolved-Fluorescence Resonance Energy Transfer (TR-FRET) Bcl-2 binding assay with F-Bak peptide probe
Experimental conditions: GST-Bcl-2 1 nM, F-Bak probe 100 nM, Tb-anti-GST 1 nM; '<' = below limit of detection; read-out: TR-FRET Bcl-2 Binding Ki
Would you mind telling me the reported log10 Ki of each entry?
Each number you see is log10 of Ki, and the unit inside the log is pM.

The following compounds have reported results that may help.
[[record]]
compound = "CCN(C)C(=O)N1CCOC(CNc2ncc(S(=O)(=O)NC(=O)c3ccc(N4CCN(CC5=C(c6ccc(Cl)cc6)CC(C)(C)CC5)CC4)cc3Oc3cnc4[nH]ccc4c3)cc2Cl)C1 (stereo not shown)"
readout = "log10 Ki"
reading = 2.30

[[record]]
compound = "CC1(C)CCC(CN2CCN(c3ccc(C(=O)NS(=O)(=O)c4cnc(OCC5COCCO5)c(C#N)c4)c(Oc4cnc5[nH]ccc5c4)c3)CC2)=C(c2ccc(Cl)cc2)C1 (stereo not shown)"
readout = "log10 Ki"
reading = 1.87

[[record]]
compound = "CC1(C)CCC(CN2CCN(c3ccc(C(=O)NS(=O)(=O)c4ccc(NC5CCN(C6CCOCC6)CC5)c([N+](=O)[O-])c4)c(Oc4cnc5[nH]ccc5c4)c3)CC2)=C(c2ccc(Cl)cc2)C1"
readout = "log10 Ki"
reading = 1.11

[[record]]
compound = "CC1(C)CCC(CN2CCN(c3ccc(C(=O)NS(=O)(=O)c4ccc(NCc5cccc(O)c5)c([N+](=O)[O-])c4)c(Oc4cnc5[nH]ccc5c4)c3)CC2)=C(c2ccc(Cl)cc2)C1"
readout = "log10 Ki"
reading = 1.67


-- ask State log10 Ki on GST-Bc1-2 (Homo sapiens). Entry: CC1(C)CCC(CN2CCN(c3ccc(C(=O)NS(=O)(=O)c4ccc(NN5CCN(C6CCOCC6)CC5)c([N+](=O)[O-])c4)c(Oc4cnc5[nH]ccc5c4)c3)CC2)=C(c2ccc(Cl)cc2)C1
-- reply 1.38
